target: T1, biotin-labelled EZH2 protein (UniProt Q15910 1-746, limits assumed, biotin label (EZ-link NHS-PEO4-Biotinylation kit)); assay: KDM2B peptide array probed with biotin-EZH2 1 ug/ml, SA-HRP/ECL;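 further: 100% is the highest background-corrected spot optical density on the membrane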;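 further: Background-corrected optical density of each spot on the membrane, given as percent of the brightest spot (100%), color developed for 5 minutes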
T1 construct: Probe in solution (1 ug/ml) on the KDM2B peptide microarray; also called NHS-PEO4-Biotinylation-labelled EZH2 protein; recombinant protein
T1 sequence (Q15910 whole entry): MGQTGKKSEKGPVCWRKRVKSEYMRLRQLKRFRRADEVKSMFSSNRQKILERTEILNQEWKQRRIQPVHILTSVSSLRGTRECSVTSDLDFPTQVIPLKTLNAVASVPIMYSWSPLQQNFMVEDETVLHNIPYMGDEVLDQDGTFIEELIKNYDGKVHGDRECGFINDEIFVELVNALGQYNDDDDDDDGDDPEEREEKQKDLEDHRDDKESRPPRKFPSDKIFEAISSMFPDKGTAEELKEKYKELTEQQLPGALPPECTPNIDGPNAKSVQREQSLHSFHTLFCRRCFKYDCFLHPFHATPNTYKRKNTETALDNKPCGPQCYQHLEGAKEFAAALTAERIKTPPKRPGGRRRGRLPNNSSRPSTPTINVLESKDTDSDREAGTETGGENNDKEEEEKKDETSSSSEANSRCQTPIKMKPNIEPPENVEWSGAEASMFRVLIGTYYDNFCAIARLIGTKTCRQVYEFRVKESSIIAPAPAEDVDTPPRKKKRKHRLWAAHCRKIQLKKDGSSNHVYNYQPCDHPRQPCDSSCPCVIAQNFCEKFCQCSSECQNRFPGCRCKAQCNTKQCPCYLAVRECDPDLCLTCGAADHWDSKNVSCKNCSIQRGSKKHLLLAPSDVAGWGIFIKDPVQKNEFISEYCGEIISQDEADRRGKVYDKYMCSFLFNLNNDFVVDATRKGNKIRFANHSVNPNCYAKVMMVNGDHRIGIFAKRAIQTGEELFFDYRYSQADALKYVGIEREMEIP
Kind request: treat 1% as inclusive, so Intensity (%) at 1% or higher is Yes, anything lower is No.

                          binder  assigned_category
0  SLAITGVPVVTWPKK [peptide 113]                Yes
1    AEKQKKKTVIYTKCF [peptide 5]                Yes
2  DLCVCMRVCRTWNRW [peptide 217]                 No
3   DENEDLSDVEEIVSV [peptide 11]                 No
4   YVQREALRVPLIFRE [peptide 20]                Yes
5   QKGTEMSMSQFVRYY [peptide 30]                Yes
6  VEKLESLPENKKCVP [peptide 105]                Yes

Provenance of the data: patent US20250197451A1
